- Test system: SARS-CoV-2
- Format: cell-based
- assayContext: PEP: drug 4 hours after virus challenge, MOI 0.1
testReadout: pEC50
Give bare numbers, as −log10 of the molar value.

input: Retrieve pEC50 measured for AS1411: GRO nucleolin-binding DNA aptamer, SEQ ID NO:10, ggtggtggtg gttgtggtgg tggtgg and print it.
output: 5.83
